Measured z-score accompanies every entry in the list below.
Protocol Summary: modulators of HCV replicon luciferase signal, primary screen, HCV replication inhibitor project, Huh7 cells, luciferase reporter (AID 1109);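 further: huh7 hepatoma cells harbouring a luciferase neomycin HCV replicon reporter; luciferase luminescence as measure of HCV replicon replication; test concentration not given here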
Protocol Conditions: 48 h, higher = more signal
Format: numeric value only, no unit, no commentary.

{"Molecule": "O=C1C[C@@H](O)[C@@H](O)[C@@H]2[C@@H]3C(=O)N(Cc4ccc5c(c4)OCO5)C(=O)[C@@H]3CC[C@@H]12", "Observed Measurement": -0.644}

[Q] Report z-score for CCc1cc2c(nc1CC)CCN(CCC(C)=NO[C@@H](C)c1cc(-c3c(C)cc(C)cc3C)no1)C2 please.
[A] -1.87

[Q] Report z-score for C=C(/C(=C/C[C@H](OC(=O)c1ccncc1)c1ccc(OCCO)cc1)c1cnc2ccccc2c1)C(C)C please.
[A] -2.01

[Q] Report z-score for C[C@@H]1C=CCC(=O)OC[C@H](C)C(=O)N[C@@H](C)C(=O)OC1 please.
[A] -0.512

[Q] Report z-score for CC(C)=C1C(=O)C(c2ccccc2)=C2CN3C(=O)N(CCc4ccccc4)C(=O)[C@]3(Cc3ccc(F)cc3)[C@H]21 please.
[A] -0.864

[Q] Report z-score for CCOC(=O)NN=C1C[C@@H](O)[C@@H](O)[C@@H]2[C@@H]3C(=O)N(C(C)(C)C)C(=O)[C@@H]3CC[C@@H]12 please.
[A] -0.529

[Q] Report z-score for CC(CCC(=O)OC[C@H]1O[C@H](C#Cc2ccccc2)C=C[C@@H]1Oc1ccc(C)cc1)=NOC[C@@H](O)[C@H]1O[C@@H]2OC(C)(C)O[C@@H]2[C@H]1O please.
[A] -1.13
